IC50 reference
target: KRas G12C (Homo sapiens, UniProt P01116, G12C); experiment: biochemical;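 also: binding to KRas assessed by TR-FRET displacement after one hour incubation at room temperature, potency fitted from percent-of-control values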
Sequence (P01116 1-169 isoform P01116-2 G12C): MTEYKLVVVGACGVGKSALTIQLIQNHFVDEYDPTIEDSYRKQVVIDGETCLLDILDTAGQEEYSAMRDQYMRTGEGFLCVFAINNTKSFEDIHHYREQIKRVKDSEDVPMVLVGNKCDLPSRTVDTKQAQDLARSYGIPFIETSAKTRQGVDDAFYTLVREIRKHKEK
readout_type: IC50 (µM)

1. N#Cc1cccnc1N1CCN(c2nc(OCC34CCCN3CCC4)nc3c(F)c(-c4cccc5cccc(F)c45)ncc23)CC1 [Example 209] = 2.52
2. CC1(O)COCCN(c2nc(OCC34CCCN3CCC4)nc3c(F)c(-c4cccc5cccc(F)c45)ncc23)C1 (stereo not shown) [Example 64] = 1.06
3. CS(=O)(=O)C1CCCCCN(c2nc(OCC34CCCN3CCC4)nc3c(F)c(-c4cccc5cccc(F)c45)ncc23)C1 (stereo not shown) [Example 251] = 6.4
4. CC1(O)CCCN(c2nc(OCC34CCCN3CCC4)nc3c(F)c(-c4cccc5sc(N)nc45)ncc23)C1 (stereo not shown) [Example 67] = 14.2
5. O=C1CC(CNc2nc(OCC34CCCN3CCC4)nc3c(F)c(-c4cccc5cccc(F)c45)ncc23)C(=O)N1 (stereo not shown) [Example 236] = 2.04
6. CCc1cccc2cccc(-c3ncc4c(NCc5c[nH]c6ncccc56)nc(OCC56CCCN5CCC6)nc4c3F)c12 [Example 205] = 0.01
7. CCc1cccc2cccc(-c3ncc4c(NCc5cn[nH]c5)nc(OCC56CCCN5CCC6)nc4c3F)c12 [Example 287] = 0.321
